meta.source: paper PMC7465344

- system_name: hA2A AR (Homo sapiens, UniProt P29274)
- Sequence (P29274 whole entry): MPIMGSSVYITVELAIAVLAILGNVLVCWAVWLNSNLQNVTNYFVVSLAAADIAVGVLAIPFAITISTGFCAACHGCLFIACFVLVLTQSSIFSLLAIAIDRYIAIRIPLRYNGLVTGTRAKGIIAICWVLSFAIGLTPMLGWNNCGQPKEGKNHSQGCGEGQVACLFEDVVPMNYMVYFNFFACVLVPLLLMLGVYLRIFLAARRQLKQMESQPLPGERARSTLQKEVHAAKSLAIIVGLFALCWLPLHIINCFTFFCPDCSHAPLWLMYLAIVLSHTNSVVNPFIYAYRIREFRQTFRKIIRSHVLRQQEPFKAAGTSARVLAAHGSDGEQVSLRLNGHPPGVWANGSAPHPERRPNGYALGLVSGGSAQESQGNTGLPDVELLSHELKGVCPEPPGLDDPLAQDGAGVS
- assay_name: Competition binding of [3H]ZM241385 to hA2A AR in CHO cell membranes
measurement_type: pKi
Numbers only, as −log10 of the molar value.

See these solved cases before continuing.
Exam item: Entry Nc1nc(NCCN2CCN(CCc3ccccc3)CC2)nc2sc(-c3ccco3)nc12 [compound 13] : reported pKi = ?
Marked response: 7.43

Exam item: Let us now turn to Nc1nc(N2CCN(CCc3ccccc3)CC2)nc2sc(-c3ccco3)nc12 [compound 4]
Marked response: 6.63

Next up:
Exam item: Which pKi value belongs to Nc1nc(NCCN2CCN(Cc3ccccc3)CC2)nc2sc(-c3ccco3)nc12 [compound 12] ?
Marked response: 7.04
